Test system: K-562 leukemia
Test: NCI-60 one-dose screen, 48 h
Conditions: 10 µM unless noted
Experimental: Cells are grown in 96 well plates and exposed to the test compound for 48 hours. Compounds are tested at a single concentration, which is 10^-5 M for most compounds. The reported endpoint is percent growth (GI% or GIPRCNT), where numbers from 0 - 100% represent growth inhibition, and numbers from -100% - 0 represent cell death. For example, a value of 40 represents 60% growth inhibition. A value of 0 means no net growth occurred over the course of the experiment. […]
About 83,000 compounds went through this panel and 20% of them were active in at least one assay; those are over-represented in the sample as a whole. Calls of active or inactive are those of the source. Rule for the calls: active = growth percent below 10; inactive = the rest.
Hello, when you answer, please use one of the following outcomes: true (1) for active, false (0) for inactive

>>> category("NC(Cc1ccc2c(c1)OCO2)c1ccc2c(c1)OCO2 (configuration not stated)")
"false (0)"
>>> category("C/C(=N/OC(=O)N(C)C)c1ccc(Cl)cc1Cl")
"false (0)"
>>> category("OB([O][Hg][c]1ccccc1)[O][Hg][c]1ccccc1")
"true (1)"
>>> category("O=C(Nc1ccc(S(=O)(=O)F)cc1)Oc1ccccc1")
"false (0)"
>>> category("[O]=[Sn]([CH]1CCCCC1)[CH]1CCCCC1")
"true (1)"

# outcome recorded in this test, key = O=CC(Br)C(Br)c1ccccc1 (configuration not stated) false (0)

# outcome recorded in this test, key = NC(Cc1ccc(O)cc1)C(=O)N/N=C/c1ccc(N(CCCl)CCCl)cc1 (configuration not stated) false (0)

# outcome recorded in this test, key = CCC1CN1P(=O)(OCCOC)N1CC1CC (configuration not stated) false (0)

# outcome recorded in this test, key = Nc1cccc(CC(=O)Nc2ccc(S(=O)(=O)F)cc2)c1 false (0)

# outcome recorded in this test, key = CCOC(=O)Nc1cc(Cl)c([N+](=O)[O-])c(NC(=O)OCC)n1 true (1)

# outcome recorded in this test, key = CC1(C)N=C(N)N=C(N)N1c1ccc(CNC(=O)Nc2ccc(S(=O)(=O)F)c(Cl)c2)c(Cl)c1 false (0)

# outcome recorded in this test, key = Nc1ccc([N+](=O)[O-])c2c1Oc1ccccc1O2 false (0)
